- Tested on: Saccharomyces cerevisiae BY4741 SeMeCo community
- Assay Notes: z-score of prototroph abundance vs DMSO median; higher = larger share of this subpopulation than in DMSO controls
- Condition Notes: 10 µM; 24 h; SM minimal medium; subpopulation (auxotrophy): Prototroph
Structures can show the parent of a compound that is named as a salt.
Provide the reported z-score of prototroph abundance of each item.
Numbers only.

Known results for compounds:
CC(=O)OCC1=C(C(=O)O)N2C(=O)[C@@H](NC(=O)Cc3cccs3)[C@H]2SC1 [Cephalothin] :: 0.3
COC(=O)C1=C(C)NC(C)=C(C(=O)OCC(C)C)C1c1ccccc1[N+](=O)[O-] (stereo not given) [Nisoldipine] :: -0.75
CC(NCCC(c1ccccc1)c1ccccc1)c1ccccc1 (stereo not given) [Fendiline hydrochloride] :: 1.56
Clc1ccc(CSC(Cn2ccnc2)c2ccc(Cl)cc2Cl)cc1 (stereo not given) [Sulconazole Nitrate] :: -9.61

Answer with the recorded z-score of prototroph abundance of COc1ccc(Cc2cnc(N)nc2N)cc1OC [Diaveridine] only.
0.22

---

- System: Saccharomyces cerevisiae BY4741 SeMeCo community
- Assay Notes: z-score of subpopulation abundance vs DMSO median, subpopulation auxotrophic for HU; higher = larger share of this subpopulation than in DMSO controls
- Condition Notes: 10 µM; 24 h; SM minimal medium; subpopulation (auxotrophy): HU
Value Type: z-score of subpopulation abundance
Answers are plain numbers.

Would you please look over these solved cases?
CC1=C(C(=O)O)N2C(=O)[C@@H](NC(=O)[C@H](N)C3=CCC=CC3)[C@H]2SC1 :: -0.92
C[C@@H](O)[C@H]1C(=O)N2C(C(=O)O)=C(S[C@@H]3CN[C@H](C(=O)Nc4cccc(C(=O)O)c4)C3)[C@H](C)[C@H]12 [Ertapenem sodium] :: -0.53
O=C1c2c(O)ccc(O)c2C(=O)c2c(NCCNCCO)ccc(NCCNCCO)c21 [Mitoxantrone 2HCl] :: 26.5

Shift focus to the following entry.
Name the value of z-score of subpopulation abundance reported for COc1ccc(C(Cl)=C(c2ccc(OC)cc2)c2ccc(OC)cc2)cc1 when tested on Saccharomyces cerevisiae BY4741 SeMeCo community.
0.01

---

- System: Saccharomyces cerevisiae BY4741 SeMeCo community
- Assay Notes: z-score of subpopulation abundance vs DMSO median, subpopulation auxotrophic for LUM; higher = larger share of this subpopulation than in DMSO controls
- Condition Notes: 10 µM; 24 h; SM minimal medium; subpopulation (auxotrophy): LUM
Counter-ions that a name gives are not always drawn.
Value Type: z-score of subpopulation abundance
Answers are plain numbers.

// known answers, use as guide
CCn1cc(C(=O)O)c(=O)c2cc(F)c(N3CCNCC3)cc21 :: -0.23
O=C(c1ccccc1)c1ccc2n1CCC2C(=O)O (stereo not given) [Ketorolac tromethamine salt] :: -0.12
C[C@H]1O[C@@H](O[C@H]2[C@@H](O)C[C@H](O[C@H]3[C@@H](O)C[C@H](O[C@H]4CC[C@@]5(C)[C@H](CC[C@@H]6[C@@H]5C[C@@H](O)[C@]5(C)[C@@H](C7=CC(=O)OC7)CC[C@]65O)C4)O[C@@H]3C)O[C@@H]2C)C[C@H](O)[C@@H]1O :: -0.61
O=C(O)c1cn(C2CC2)c2cc(N3CCNCC3)c(F)cc2c1=O [Ciprofloxacin hydrochloride hydrate] :: 0.41
CC1=C(CC(=O)O)c2cc(F)ccc2/C1=C\c1ccc([S+](C)[O-])cc1 (stereo not given) :: 0.36

// for each compound below, give its z-score of subpopulation abundance
1. CC(=O)N1CCN(c2ccc(OCC3COC(Cn4ccnc4)(c4ccc(Cl)cc4Cl)O3)cc2)CC1 (stereo not given)
2. Cc1c(-c2ccc(O)cc2)n(Cc2ccc(OCCN3CCCCCC3)cc2)c2ccc(O)cc12 [Bazedoxifene HCl]
3. CC(C)c1nc(N(C)S(C)(=O)=O)nc(-c2ccc(F)cc2)c1/C=C/[C@@H](O)C[C@@H](O)CC(=O)O [Rosuvastatin Calcium]

-0.27
0.03
1.01

---

- Test system: Saccharomyces cerevisiae BY4741 SeMeCo community
- Assay Notes: z-score of subpopulation abundance vs DMSO median, subpopulation auxotrophic for HUM; higher = larger share of this subpopulation than in DMSO controls
- Condition Notes: 10 µM; 24 h; SM minimal medium; subpopulation (auxotrophy): HUM
Counter-ions that a name gives are not always drawn.
Assign z-score of subpopulation abundance to each entry below.
Numbers only.

COc1ccc(C(=O)NCc2ccc(OCCN(C)C)cc2)cc1OC [Itopride hydrochloride] :: 0.81

Please go through the list and note z-score of subpopulation abundance for each compound.
1. CCn1cc(C(=O)O)c(=O)c2cnc(N3CCNCC3)nc21 [Pipemidic acid]
2. CNS(=O)(=O)CCc1ccc2[nH]cc(C3CCN(C)CC3)c2c1 [Naratriptan HCl]
3. N#Cc1ccc2[nH]cc(CCCCN3CCN(c4ccc5oc(C(N)=O)cc5c4)CC3)c2c1 [Vilazodone HCl]

1: 0.55; 2: -0.27; 3: 0.23

# per-item lookup of z-score of subpopulation abundance; items listed below
1. CC[C@H](Nc1ncnc2[nH]cnc12)c1nc2cccc(F)c2c(=O)n1-c1ccccc1 [Idelalisib (CAL-101, GS-1101)]
2. Oc1ccc([C@H]2COc3cc(O)ccc3C2)cc1 [Equol]
3. CC(C)COCC(CN(Cc1ccccc1)c1ccccc1)N1CCCC1 (stereo not drawn) [Bepridil hydrochloride]
4. CCN(CC)CC#CCOC(=O)C(O)(c1ccccc1)C1CCCCC1 (stereo not drawn) [Oxybutynin chloride]

-0.4
-0.27
1.35
-0.97

---

- System: Saccharomyces cerevisiae BY4741 SeMeCo community
- Assay Notes: z-score of subpopulation abundance vs DMSO median, subpopulation auxotrophic for HU; higher = larger share of this subpopulation than in DMSO controls
- Condition Notes: 10 µM; 24 h; SM minimal medium; subpopulation (auxotrophy): HU
Counter-ions that a name gives are not always drawn.
Value Type: z-score of subpopulation abundance

Below, each entry is followed by its recorded z-score of subpopulation abundance result.
O=c1n(CCCN2CCN(c3cccc(Cl)c3)CC2)nc2ccccn12 [Trazodone HCl] :: 0.33
Nc1nc(/C(=C/CC(=O)O)C(=O)N[C@@H]2C(=O)N3C(C(=O)O)=CCS[C@H]23)cs1 [Ceftibuten dihydrate] :: -0.31
C#CCN[C@@H]1CCc2ccccc21 [Rasagiline] :: 0
CC(C)n1c(/C=C/C(O)CC(O)CC(=O)O)c(-c2ccc(F)cc2)c2ccccc21 (stereo not drawn) [Fluvastatin Sodium] :: 7.53
Nc1ccc(S(=O)(=O)Nc2ccnn2-c2ccccc2)cc1 [Sulfaphenazole] :: -0.47
C=CC(C)(O)CCC=C(C)C (stereo not drawn) [Linalool] :: 0.69
CC(=O)OCC(CCn1cnc2cnc(N)nc21)COC(C)=O [Famciclovir] :: -0.39
Nc1nc(=O)[nH]cc1F [Flucytosine] :: 8.85

Provide z-score of subpopulation abundance for all items below, preserving their order.
1. COc1ccc2c3c1O[C@H]1C[C@@H](O)C=C[C@@]31CCN(C)C2 [Galanthamine HBr]
2. c1cnc(N2CCN(Cc3ccc4c(c3)OCO4)CC2)nc1 [Piribedil]
3. Cn1c([N+](=O)[O-])cnc1COC(N)=O [Ronidazole]

1: -0.13; 2: -0.25; 3: -1.13

Hi! Can you tell me z-score of subpopulation abundance for each of these compounds?
1. C[C@@H](O)[C@H]1C(=O)N2C(C(=O)O)=C(SCCNC=N)C[C@H]12 [Imipenem]
2. Cc1c(S(=O)(=O)O)oc2c1C(=O)C(=O)c1c-2ccc2c1CCCC2(C)C [Tanshinone IIA sulfonate (sodium)]
3. O=C(O)C[C@H](O)C[C@H](O)/C=C/c1c(C2CC2)nc2ccccc2c1-c1ccc(F)cc1 [Pitavastatin Calcium]
4. CCc1nc(N)nc(N)c1-c1ccc(Cl)cc1 [Pyrimethamine]
5. O=C(O)CCC(=O)Nc1ccc(S(=O)(=O)Nc2nccs2)cc1 [Succinylsulfathiazole]

[-0.46, -2.62, 2.66, -0.29, -0.31]

Lab note: each compound below needs its z-score of subpopulation abundance filled in.
1. COc1nc2ccc(Br)cc2cc1[C@@H](c1ccccc1)[C@@](O)(CCN(C)C)c1cccc2ccccc12 [Bedaquiline fumarate]
2. CCC(=O)Oc1ccc2c(c1)CCC1C2CCC2(C)C(OC(=O)CC)CCC12 (stereo not drawn) [Estradiol dipropionate(17-Beta-Estradiol-3,17-Dipropionate)]

1. 1.44
2. 0.2

---

Give z-score of subpopulation abundance for every item shown.
- Tested on: Saccharomyces cerevisiae BY4741 SeMeCo community
- Assay Notes: z-score of subpopulation abundance vs DMSO median, subpopulation auxotrophic for LUM; higher = larger share of this subpopulation than in DMSO controls
- Condition Notes: 10 µM; 24 h; SM minimal medium; subpopulation (auxotrophy): LUM
Counter-ions that a name gives are not always drawn.
Numbers only.

Hi there! I need z-score of subpopulation abundance for each item below, if you can.
1. N[C@@H]1CN(c2c(F)cc3c(=O)c(C(=O)O)cn([C@@H]4C[C@@H]4F)c3c2Cl)CC12CC2 [Sitafloxacin Hydrate]
2. CCN(CC)CCNC(=O)c1cc(S(C)(=O)=O)ccc1OC [Tiapride Hydrochloride]
3. CC[C@H](Nc1ncnc2[nH]cnc12)c1nc2cccc(F)c2c(=O)n1-c1ccccc1 [Idelalisib (CAL-101, GS-1101)]
4. CCc1nn(CCCN2CCN(c3cccc(Cl)c3)CC2)c(=O)n1CCOc1ccccc1 [Nefazodone hydrochloride]

1. 0.98
2. 0.9
3. 0.11
4. 0.49
